target: full length human c-Met on cells (human, UniProt P08581 25-1390); assay: cell-based or functional assay
Sequence (P08581 25-1390): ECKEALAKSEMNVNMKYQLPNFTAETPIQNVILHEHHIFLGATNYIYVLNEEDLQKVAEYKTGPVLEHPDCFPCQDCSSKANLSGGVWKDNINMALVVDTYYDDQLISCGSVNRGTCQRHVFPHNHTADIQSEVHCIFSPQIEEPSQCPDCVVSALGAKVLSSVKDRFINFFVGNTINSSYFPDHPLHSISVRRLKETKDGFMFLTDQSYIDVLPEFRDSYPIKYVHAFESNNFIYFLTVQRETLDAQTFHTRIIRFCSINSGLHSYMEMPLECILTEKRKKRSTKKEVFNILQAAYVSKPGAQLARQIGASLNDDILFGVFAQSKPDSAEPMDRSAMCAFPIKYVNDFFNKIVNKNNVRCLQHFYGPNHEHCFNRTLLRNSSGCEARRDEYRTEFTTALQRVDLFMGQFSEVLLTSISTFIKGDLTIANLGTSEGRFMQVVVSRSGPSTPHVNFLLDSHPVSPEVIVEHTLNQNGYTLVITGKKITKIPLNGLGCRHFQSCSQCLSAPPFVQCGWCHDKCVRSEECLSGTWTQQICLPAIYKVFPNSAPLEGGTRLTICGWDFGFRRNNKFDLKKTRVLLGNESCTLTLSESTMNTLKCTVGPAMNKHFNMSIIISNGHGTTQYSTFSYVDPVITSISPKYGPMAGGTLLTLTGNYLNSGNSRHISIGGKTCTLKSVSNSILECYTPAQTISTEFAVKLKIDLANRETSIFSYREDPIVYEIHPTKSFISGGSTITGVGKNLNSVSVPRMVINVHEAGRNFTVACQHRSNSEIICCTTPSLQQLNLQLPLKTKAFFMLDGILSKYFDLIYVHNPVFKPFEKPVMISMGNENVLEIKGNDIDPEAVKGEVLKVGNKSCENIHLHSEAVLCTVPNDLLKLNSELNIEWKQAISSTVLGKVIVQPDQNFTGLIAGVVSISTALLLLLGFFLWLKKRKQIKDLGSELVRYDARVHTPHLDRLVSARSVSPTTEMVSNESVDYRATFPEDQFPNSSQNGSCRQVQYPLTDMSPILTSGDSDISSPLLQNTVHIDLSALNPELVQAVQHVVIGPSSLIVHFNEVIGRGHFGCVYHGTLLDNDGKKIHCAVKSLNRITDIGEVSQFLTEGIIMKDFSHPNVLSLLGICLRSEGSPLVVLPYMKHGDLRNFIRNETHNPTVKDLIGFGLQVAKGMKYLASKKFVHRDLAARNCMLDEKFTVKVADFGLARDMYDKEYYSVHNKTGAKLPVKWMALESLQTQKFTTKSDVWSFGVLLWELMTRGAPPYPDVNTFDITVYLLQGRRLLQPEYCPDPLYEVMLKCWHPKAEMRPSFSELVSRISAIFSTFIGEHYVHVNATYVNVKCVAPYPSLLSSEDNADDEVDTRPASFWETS
Measurement label: EC50 [nM] Inhibition of HGF driven migration NCI-H441 in 1% serum (nM)
Write the answer as a number in nM, unit excluded.

- 05091 in IgG format (antibody, V domains shown) VH: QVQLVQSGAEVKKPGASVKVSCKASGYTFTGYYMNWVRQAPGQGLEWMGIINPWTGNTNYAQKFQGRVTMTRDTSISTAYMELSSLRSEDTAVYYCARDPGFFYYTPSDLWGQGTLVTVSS VL: DIELTQPPSVSVAPGQTARISCSGDSIGNKYVHWYQQKPGQAPVLVIYADSDRPSGIPERFSGSNSGNTATLTISGTQAEDEADYYCQSYAHYHDIWVFGGGTKLTVLG: 0.61

For 05185 in IgG format (antibody, V domains shown) VH: QVQLVQSGAEVKKPGSSVKVSCKASGGTFSSYAISWVRQAPGQGLEWMGGIDPIMGTEYAQKFQGRVTITADESTSTAYMELSSLRSEDTAVYYCARVYQDVWGQGTLVTVSS VL: DIVMTQSPDSLAVSLGERATINCRSSQSILYGINNNFLGWYQQKPGQPPKLLIYWASTRESGVPDRFSGSGSGTDFTLTISSLQAEDVAVYYCQQYAYEPNTFGQGTKVEIKR the binder record lists EC50 [nM] Inhibition of HGF driven migration NCI-H441 in 1% serum as 1.2

Noted for 05097 in IgG format (antibody, V domains shown) VH: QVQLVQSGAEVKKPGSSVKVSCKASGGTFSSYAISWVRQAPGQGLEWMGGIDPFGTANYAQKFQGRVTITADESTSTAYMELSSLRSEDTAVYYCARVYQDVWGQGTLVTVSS VL: DIVMTQSPDSLAVSLGERATINCRSSQSILYGINNNFLGWYQQKPGQPPKLLIYWASTRESGVPDRFSGSGSGTDFTLTISSLQAEDVAVYYCQQYAFGWTFGQGTKVEIKR : its EC50 [nM] Inhibition of HGF driven migration NCI-H441 in 1% serum reads 0.76

Lab note: measured EC50 [nM] Inhibition of HGF driven migration NCI-H441 in 1% serum of 05098 in IgG format (antibody, V domains shown) VH: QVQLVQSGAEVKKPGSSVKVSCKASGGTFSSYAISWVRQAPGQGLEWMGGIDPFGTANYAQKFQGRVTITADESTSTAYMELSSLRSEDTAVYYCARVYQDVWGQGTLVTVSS VL: DIVMTQSPDSLAVSLGERATINCRSSQSILYGINNNFLGWYQQKPGQPPKLLIYWASTRESGVPDRFSGSGSGTDFTLTISSLQAEDVAVYYCLQYSDEPWTFGQGTKVEIKR was 0.73
